Molecular target: human HER3-ECD-His (human) (UniProt P21860)
Assay: ELISA on coated human HER3
property_name: OD450 (OD450)
Give the number; OD450 is assumed, so skip it.

-- ask Given mHE1 (antibody, V domains shown) VH: EVKLQESGPGLVKPSQSLSLTCSVTGYSITSGYYWNWIRQFPGNKLEWMGYISYDGSNNYNPSLKNRISITRDTSKNQFFLNLNSVTTEDTATYYCARVDWDGDAMDYWGQGTSVTVSS VL: DIVLTQSPASLAVSLGQRATISCRASESVDNYGIRLMHWYQQKSGQPPKLLIHRASNLESGIPARFSGSGSRTDFTLTINPVETDDVATYYCQQSNKDPFTFGSGTKLEIKR , state its recorded OD450.
-- reply 1.86

-- ask Given mHE5 (antibody, V domains shown) VH: EVQLQESGPGLVKPSQSLSLTCSVTGYSITSGYYWNWIRQFPGNKLEWMGYISYDGSNNYNPSLKNRISITRDTSKNQFFLKLNSVTTEDTATYYCASYDYDGDWFAYWGQGTLVTVSA VL: DIVLTQSPASLAVSLGQRATISCRASESVDHYGSSFMHWYQQKPGQPPKLLIYRASNPESGIPARFSGSGSRTDFTLTINPVETDDVATYYCQQSNKDPPTFGGGTKLEIKR , state its recorded OD450.
-- reply 1.9
